- target: T1, Peptide-8 (human, phosphothreonine 212 (tau 2N4R numbering); SCBiot and dPEG4 at the N-terminus; amide at the C-terminus)
- T1 construct: also called pT212-tau peptide (Peptide-8)
- T1 sequence (peptide, as listed by the source): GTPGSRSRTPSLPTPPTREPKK
- method description: SPR ProteOn, mAb captured by anti-human Fc, peptide as analyte
experimental readout: koff (s⁻¹)
Hi! Could you send only the number? It should be in s⁻¹, unit omitted.

The following binders have reported results that may help.
Record B234 (antibody, human IgG1, V domains shown, Mouse PT3 variable regions (VH10/VL7) with human IgG1/kappa constant region; also called mouse PT3, hIgG1) VH: EVKLVESGGDLVKPGGSLKLSCAASGFTFSSYAMSWVRQNPEKRLEWVASISKGGNTYYPNSVKGRFTISRDNARNILYLQMSSLRSEDTALYYCARGWGDYGWFAYWGQVTLVTVSA VL: DIKMTQSPSSMYASLGERVTITCKASQDINRYLNWFQQKPGKSPKTLIYRANRLLDGVPSRFSGSGSGQDYSLTISSLDYEDMGIYYCLQYDEFPLTFGDGTKLELK , field koff: 0.00802

Sure, the documented koff for B282 (antibody, human IgG1, V domains shown, Humanized (HFA) PT3 variant, human IgG1/kappa; also called VH93/VL77) VH: QVQLVESGGGLVKPGGSLRLSCAASGFTFSSYAMSWIRQAPGKGLEWVSSISKGGNTYYADSVKGRFTISRDNAKNSLYLQMNSLRAEDTAVYYCARGWGDYGWFAYWGQVTLVTVSS VL: DIQMTQSPSSLSASVGDRVTITCKASQDINRYLNWFQQKPGKAPKSLIYRANRLLDGVPSRFSGSGSGTDFTLTISSLQPEDFATYYCLQYDEFPLTFGQGTKLEIK is 0.0382

Form: binder = B296 (antibody, human IgG1, kappa, V domains shown, Humanized PT3, human IgG1/kappa; also called VH92/VL77; HFA-PT3) VH: QVQLVESGGGVVQPGRSLRLSCAASGFTFSSYAMSWVRQAPGKGLEWVASISKGGNTYYADSVKGRFTISRDNSKNTLYLQMNSLRAEDTAVYYCARGWGDYGWFAYWGQVTLVTVSS VL: DIQMTQSPSSLSASVGDRVTITCKASQDINRYLNWFQQKPGKAPKSLIYRANRLLDGVPSRFSGSGSGTDFTLTISSLQPEDFATYYCLQYDEFPLTFGQGTKLEIKR ; koff = 0.023

Now turn to the next binder.
koff reading for B252 (antibody, human IgG1, V domains shown, Humanized (HFA) PT3 variant, human IgG1/kappa; also called VH93/VL80) VH: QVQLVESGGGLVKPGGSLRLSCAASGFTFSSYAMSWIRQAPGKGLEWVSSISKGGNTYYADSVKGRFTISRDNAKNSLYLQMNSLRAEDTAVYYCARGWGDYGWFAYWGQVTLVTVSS VL: DIVMTQTPLSSPVTLGQPASISCKASQDINRYLNWLQQRPGQPPRLLIYRANRLLDGVPDRFSGSGAGTDFTLKISRVEAEDVGVYYCLQYDEFPLTFGQGTKLEIK : 0.0242
